System: RPMI-8226 leukemia
Experiment: NCI tumour cell line growth inhibition, 384-well format
quantity_name: TGI (µM)
Form entry: value (µM) — number only.

# example entries with known answers
O=C1CC(c2ccc(N3CCOCC3)cc2)(c2ccsc2)NC(=O)C1Sc1ccccc1Cl (centres undefined)    41.2
C[C@@H]1CN(C(=O)c2ccc(NC(=O)c3cc(O[C@H](C)c4c(Cl)ccc(F)c4Cl)c(N)nn3)cc2)C[C@H](C)N1    2.49
CCCN(CCC)C(=O)C1=Cc2ccc(-c3ccc(C(=O)N4CCCC4)cc3)cc2N=C(N)C1    5.78

Now examine the next entry.
Prompt line: Entry under review: `Cn1cncc1[C@@](N)(c1ccc(Cl)cc1)c1ccc2c(c1)c(-c1cccc(Cl)c1)cc(=O)n2C` . Reported TGI?
Response line: 0.218
